All figures here come from ChEMBL document CHEMBL5303573.

experimental protocol: The drug is tested on Eubacterium hallii strain: DSM3353 for biotransformation. The drug concentrations were measured before and after a 12-h incubation by liquid-chromatography-coupled mass spectrometry (LC–MS)
condition details: anaerobutyricum hallii, 2 µM
experimental endpoint: Bacterial Biotransformation

The following molecules have reported results that may help.
CCCCCCOC(=O)/N=C(/N)c1ccc(NCc2nc3cc(C(=O)N(CCC(=O)OCC)c4ccccn4)ccc3n2C)cc1.CS(=O)(=O)O [DABIGATRAN ETEXILATE MESYLATE]
Compound NOT metabolized
O=C([O-])C[C@H](O)C[C@H](O)/C=C/c1c(C2CC2)nc2ccccc2c1-c1ccc(F)cc1.O=C([O-])C[C@H](O)C[C@H](O)/C=C/c1c(C2CC2)nc2ccccc2c1-c1ccc(F)cc1.[Ca+2]
Compound NOT metabolized
CCS(=O)(=O)CCn1c([N+](=O)[O-])cnc1C
Compound metabolized
COc1ccnc(C[S+]([O-])c2nc3ccc(OC(F)F)cc3[nH]2)c1OC (stereo not given)
Compound metabolized
c1ccc([C@H]2CN3CCSC3=N2)cc1
Compound NOT metabolized

Q: Requested field: Bacterial Biotransformation. Item: CC(C)(C(=O)O)c1ccc(C(O)CCCN2CCC(C(O)(c3ccccc3)c3ccccc3)CC2)cc1 (stereo not given) [FEXOFENADINE]
Ans: Compound NOT metabolized

Q: Requested field: Bacterial Biotransformation. Item: Cc1nc(-c2ccc(OCC(C)C)c(C#N)c2)sc1C(=O)O
Ans: Compound NOT metabolized

Q: Requested field: Bacterial Biotransformation. Item: C[C@@H]1C[C@H]2[C@@H]3CCC4=CC(=O)C=C[C@]4(C)[C@@]3(F)[C@@H](O)C[C@]2(C)[C@@]1(O)C(=O)CO
Ans: Compound NOT metabolized
